assay: Compound 3 blood PK in SW48 tumour-bearing mice; assay type: in vivo, mouse; settings: female, mouse, whole blood, oral, 50 mg/kg, 50mg/kg BID; 2 h; read-out: Mean total blood concentration

Compound | concentration at 2 h [nM]
CCc1c(N2CCN(C(=O)c3ncccc3O)CC2)c(=O)n2nc(C3=CCOCC3)nc2n1CC(=O)Nc1ccc(C(F)(F)F)cc1C [compound 3] | 2060

* * *

assay: CL in vivo, intravenous bolus; details: whole blood, 0.1 mg/kg; dog; intravenous bolus 0.1 mg per kg

Sample smiles | clearance (mL/min/kg)
CCc1c(N2CCN(C(=O)c3ncnc(C)c3O)CC2)c(=O)n2nc(C3=CCOCC3)nc2n1CC(=O)Nc1ccc(C(F)(F)F)cc1Cl | 4.3

* * *

test: HRO761 blood PK in SW48 tumour-bearing mice; format: in vivo, mouse; details: female, mouse, whole blood, oral, 20 mg/kg, Free HRO761 blood concentration, 20mg/kg po, qd; 4 h; single mouse

Sample smiles | concentration at 4 h
CCc1c(N2CCN(C(=O)c3ncnc(C)c3O)CC2)c(=O)n2nc(C3=CCOCC3)nc2n1CC(=O)Nc1ccc(C(F)(F)F)cc1Cl | 176 nM

* * *

test: logD / logP; type: physicochemical; details: 1-octanol/water, pH 7.4, 1-octanol and water at pH 7.4
As shown below, each of these molecules has a reported logD value.

Sample smiles | logD
CCc1c(N2CCN(C(=O)c3ncccc3O)CC2)c(=O)n2nc(C3=CCOCC3)nc2n1CC(=O)Nc1ccc(C(F)(F)F)cc1C | 2.9
Cc1c(N2CCN(C(=O)c3c(F)ccc(F)c3O)CC2)c(=O)n2nc(C3=CCOCC3)nc2n1CC(=O)Nc1ccc(C(F)(F)F)cc1 | 3.7
CCc1c(N2CCN(C(=O)c3ncnc(C)c3O)CC2)c(=O)n2nc(C3=CCOCC3)nc2n1CC(=O)Nc1ccc(C(F)(F)F)cc1Cl | 1.8

* * *

system: CYP (all isoforms tested); experiment: CYP inhibition; assay type: in vitro ADME
pIC50: −log10 of the molar value.

Sample smiles | pIC50
CCc1c(N2CCN(C(=O)c3ncnc(C)c3O)CC2)c(=O)n2nc(C3=CCOCC3)nc2n1CC(=O)Nc1ccc(C(F)(F)F)cc1Cl | < 4.60

* * *

assay: HRO761 blood PK in SW48 tumour-bearing mice; format: in vivo, mouse; settings: female, mouse, whole blood, oral, 120 mg/kg, Free HRO761 blood concentration, Mean; 2 h

Compound | concentration at 2 h (µM)
CCc1c(N2CCN(C(=O)c3ncnc(C)c3O)CC2)c(=O)n2nc(C3=CCOCC3)nc2n1CC(=O)Nc1ccc(C(F)(F)F)cc1Cl [HRO761] | 4.01

* * *

experiment: HRO761 blood PK in SW48 tumour-bearing mice; format: in vivo, mouse; settings: female, mouse, whole blood, oral, 120 mg/kg, Free HRO761 blood concentration; 8 h; single mouse

Sample smiles | Unit of measure | concentration at 8 h
CCc1c(N2CCN(C(=O)c3ncnc(C)c3O)CC2)c(=O)n2nc(C3=CCOCC3)nc2n1CC(=O)Nc1ccc(C(F)(F)F)cc1Cl | nM | 620

* * *

Assay: HRO761 blood PK in SW48 tumour-bearing mice
Assay type: in vivo, mouse
Conditions: female, mouse, whole blood, oral, 20 mg/kg, Free HRO761 blood concentration, Mean, 20mg/kg po, qd; 4 h
Experimental: All animal studies were conducted in accordance with ethics and procedures covered by permit BS-2275 and BS-1975 issued by the Kantonales Veterinäramt Basel-Stadt and in strict adherence to guidelines of the Eidgenössisches Tierschutzgesetz and the Eidgenössische Tierschutzverordnung, Switzerland. All animal studies were approved by the internal ethics committee. […] PK parameters were determined by non-compartmental analysis. […]

Compound | concentration at 4 h
CCc1c(N2CCN(C(=O)c3ncnc(C)c3O)CC2)c(=O)n2nc(C3=CCOCC3)nc2n1CC(=O)Nc1ccc(C(F)(F)F)cc1Cl [HRO761] | 140 nM
